Assay: chemical genetic growth profiling, strain panel (AID 1159580);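 further: tested at 20 µM; growth read once vehicle control cultures reached saturation at 30 °C; 1 = growth at the plate median or of vehicle wells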
Settings: S. cerevisiae deletion strains, growth OD, locus YDR195W, strain ref2
The campaign covered roughly 5,500 compounds. About 2,000 (36%) were called active. About 18% were inconclusive and are not listed. No stated cut-off is given here; in the data, active means normalized growth mostly below about 0.91 (no sharp cut-off); inconclusive means no clear call, values can overlap the other calls; inactive means mostly above about 0.92. The list shows a part of the results.
Outcome codes: yes (1) (active), no (0) (inactive)

>>> label("COc1ccc(/C=C/C(=O)c2ccc(O)cc2O)cc1")
"yes (1)"
>>> label("CC1(C)O[C@@H]2[C@@H](CO[C@@]3(COS(N)(=O)=O)OC(C)(C)O[C@@H]23)O1")
"no (0)"
>>> label("COc1ccc(/C=C/c2cc(O)cc(O)c2)cc1")
"no (0)"
>>> label("COc1ccc(C[C@H](N)C(=O)N[C@@H]2[C@@H](CO)OC(n3cnc4c(N(C)C)ncnc43)[C@@H]2O)cc1 (stereo not given in full)")
"no (0)"
>>> label("CN(Cc1cc(Br)cc(Br)c1N)C1CCCCC1")
"no (0)"

====

Assay: chemical genetic growth profiling, strain panel (AID 1159580)
Conditions: S. cerevisiae deletion strains, growth OD, locus YBL105C, strain PKC1, stronger effect = lower value
Among all 5,500 compounds or so, about 2,000 (36%) were called active. Not shown: some 18% with an inconclusive outcome. The list shows a part of the results.
recorded_metric: normalized growth

>>> recorded_value("O=C(Nc1ccccn1)c1cc(-c2ccccc2)c(C(F)(F)F)s1")
0.94
>>> recorded_value("CCOC(=O)NC(=S)NC12CC3CC(CC(C3)C1)C2")
0.983
>>> recorded_value("C/C(=N/OC(=O)Nc1ccc(Cl)cc1)c1ccc2c(c1)CCO2")
0.95
>>> recorded_value("CSc1c(C#N)c(-c2ccc(Cl)cc2)nn1C(=O)c1ccccc1Cl")
0.95

====

Test: chemical genetic growth profiling, strain panel (AID 1159580)
Details: S. cerevisiae deletion strains, growth OD, locus YLR342W, strain FKS1, stronger effect = lower value
About 2,000 (36%) of roughly 5,500 compounds were called active. Not shown: some 18% with an inconclusive outcome. The list shows a part of the results.
Consider the following compounds and their measured normalized growth readings.
recorded_metric: normalized growth

>>> recorded_value("C=CC1=C(C)/C(=C/c2[nH]c(Cc3[nH]c(/C=C4\\NC(=O)C(C)=C4C=C)c(C)c3CCC(=O)O)c(CCC(=O)O)c2C)NC1=O")
0.992
>>> recorded_value("COC(=O)[C@H]1[C@H]2C[C@@H]3c4[nH]c5cc(OC)ccc5c4CCN3C[C@H]2C[C@@H](OC(=O)c2cc(OC)c(OC)c(OC)c2)[C@@H]1OC")
0.959
>>> recorded_value("O=C(O)c1cc(=O)c(O)c2c(O)c(O)c(O)cc2c1")
0.538
>>> recorded_value("O=C(O)c1cc(=O)c(O)c2c(O)c(O)ccc2c1")
0.996
>>> recorded_value("Cc1cccc(CN2CCN(C(c3ccccc3)c3ccc(Cl)cc3)CC2)c1 (stereo not given)")
0.929

====

Experiment: chemical genetic growth profiling, strain panel (AID 1159580);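 further: tested at 20 µM; growth read once vehicle control cultures reached saturation at 30 °C; 1 = growth at the plate median or of vehicle wells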
Conditions: S. cerevisiae deletion strains, growth OD, locus YOR001W, strain rrp6, stronger effect = lower value
The campaign covered roughly 5,500 compounds. About 2,000 (36%) were called active. About 18% were inconclusive and are not listed. Some of the results follow.
Values of normalized growth strictly less than 1 map to 1, and values of at least 1 map to -1.

>>> label("C[C@]12CCC3c4ccc(OS(=O)(=O)O)cc4CCC3C1CCC2=O (stereo partly drawn)")
-1
>>> label("CN(Cc1cnc2nc(N)nc(N)c2n1)c1ccc(C(=O)NC(CCC(=O)O)C(=O)O)cc1 (stereo not drawn)")
1
>>> label("C=CC1=C(C)/C(=C/c2[nH]c(Cc3[nH]c(/C=C4\\NC(=O)C(C)=C4C=C)c(C)c3CCC(=O)O)c(CCC(=O)O)c2C)NC1=O")
1
>>> label("c1ccc(-c2ccc(C(c3ccccc3)n3ccnc3)cc2)cc1 (stereo not drawn)")
1

====

Readings of normalized growth for the listed molecules
Experiment: chemical genetic growth profiling, strain panel (AID 1159580);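 further: tested at 20 µM; growth read once vehicle control cultures reached saturation at 30 °C; 1 = growth at the plate median or of vehicle wells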
Settings: S. cerevisiae deletion strains, growth OD, locus YER002W, strain NOP16, stronger effect = lower value
In all, about 5,500 compounds went through this assay and about 2,000 (36%) were called active. About 18% were inconclusive and are not listed. Some of the results follow.
recorded_metric: normalized growth

>>> recorded_value("C=CCN1CCc2cccc3c2[C@H]1Cc1ccc(O)c(O)c1-3")
"0.976 (inactive)"
>>> recorded_value("c1ccc(C2CC2)c(OCC2=NCCN2)c1")
"0.98 (inactive)"
>>> recorded_value("C=CCN1CC[C@]23c4c5ccc(O)c4O[C@@H]2/C(=N\\N=C2\\CC[C@@]4(O)C6Cc7ccc(O)c8c7[C@@]4(CCN6CC=C)[C@@H]2O8)CC[C@@]3(O)C1C5")
"1 (inactive)"

====

Assay: chemical genetic growth profiling, strain panel (AID 1159580);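 further: tested at 20 µM; growth read once vehicle control cultures reached saturation at 30 °C; 1 = growth at the plate median or of vehicle wells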
Conditions: S. cerevisiae deletion strains, growth OD, locus YOR083W, strain WHI5
In all, about 5,500 compounds went through this assay and about 2,000 (36%) were called active. Roughly 18% stayed inconclusive and do not appear here. No stated cut-off is given here; in the data, active means normalized growth mostly below about 0.91 (no sharp cut-off); inconclusive means no clear call, values can overlap the other calls; inactive means mostly above about 0.92. The list shows a part of the results.
Possible outcomes: yes (1) = active, no (0) = inactive

>>> label("COc1ccc(C=CC(=O)c2ccc(O)cc2O)cc1OC")
"yes (1)"
>>> label("CCn1cc(C(=O)O)c(=O)c2cnc(N3CCCC3)nc21")
"no (0)"
>>> label("CC1(C)O[C@@H]2[C@@H](CO[C@@]3(COS(N)(=O)=O)OC(C)(C)O[C@@H]23)O1")
"no (0)"
>>> label("COc1ccc(/C=C/C(=O)c2cc(O)ccc2O)cc1")
"yes (1)"
>>> label("Oc1ccc(/C=C/c2cc(O)cc(O)c2)cc1")
"no (0)"
>>> label("C[C@@H]1CC2C3CCC4=CC(=O)C=C[C@]4(C)[C@@]3(F)[C@@H](O)C[C@]2(C)[C@@]1(O)C(=O)COP(=O)(O)O (some centres not stated)")
"no (0)"
>>> label("CC1=C(/C=C/C(C)=C/C=C/C(C)=C/C(=O)O)C(C)(C)CCC1")
"yes (1)"
>>> label("COc1cc(/C=C/C(=O)O)cc(OC)c1OC")
"no (0)"
>>> label("N[C@@H](CCC(=O)N[C@@H](CCSC(CC(=O)O)C(=O)O)C(=O)NCC(=O)O)C(=O)O (some centres not stated)")
"no (0)"
>>> label("Nc1c(Br)cc(Br)cc1CNC1CCC(O)CC1 (configuration not stated)")
"no (0)"
>>> label("CCn1cc(C(=O)O)c(=O)c2cc3c(cc21)OCO3")
"no (0)"
>>> label("CC[C@]1(O)CC2CN(CCc3c([nH]c4ccccc34)[C@@](C(=O)OC)(c3cc4c(cc3OC)N(C=O)[C@H]3[C@@](O)(C(=O)OC)[C@H](OC(C)=O)[C@]5(CC)C=CCN6CC[C@]43[C@@H]65)C2)C1 (some centres not stated)")
"no (0)"
>>> label("CC[C@]12CCCN3CCc4c(n(c5ccccc45)C(=O)C1)[C@@H]32")
"no (0)"
>>> label("c1ccc2[nH]c(-c3cscn3)nc2c1")
"no (0)"
>>> label("O=C(O)c1cc(=O)c(O)c2c(O)c(O)c(O)cc2c1")
"yes (1)"
>>> label("CC12CCCC(O)(C1)C1CC(C)(C)C1CC2 (configuration not stated)")
"no (0)"
>>> label("CN(Cc1cnc2nc(N)nc(N)c2n1)c1ccc(C(=O)NC(CCC(=O)O)C(=O)O)cc1 (configuration not stated)")
"no (0)"
>>> label("CCC(COC(=O)c1cc(OC)c(OC)c(OC)c1)(c1ccccc1)N(C)C (configuration not stated)")
"no (0)"
>>> label("O=C1CN(/N=C\\c2ccc([N+](=O)[O-])o2)C(=O)N1")
"no (0)"
>>> label("CC(COc1ccccc1)N(CCCl)Cc1ccccc1 (configuration not stated)")
"no (0)"
>>> label("O=C(NC(=O)c1c(F)cccc1F)Nc1cc(Cl)c(OC(F)(F)C(F)C(F)(F)F)cc1Cl (configuration not stated)")
"no (0)"
>>> label("OC/C=C/c1ccc(O)c(O)c1")
"no (0)"
>>> label("CC[C@]12CCCN3CCc4c(n(c5ccccc45)[C@](O)(C(=O)OC)C1)[C@@H]32")
"no (0)"
>>> label("COc1ccc(/C=C/C(=O)c2ccc(O)cc2O)cc1")
"yes (1)"
>>> label("CC1(C)CC2C1CCC1(C)OC1CCC2(C)O (configuration not stated)")
"no (0)"
>>> label("CCn1cc(C(=O)O)c(=O)c2ccc(C)nc21")
"no (0)"
>>> label("CC[C@@]1(C2O[C@@H](C3O[C@@](O)(CC)[C@H](C)C[C@@H]3C)C[C@@H]2C)CC[C@H]([C@]2(C)CCC3(C[C@H](O)[C@@H](C)[C@@H]([C@H](C)[C@@H](OC)[C@H](C)C(=O)O)O3)O2)O1 (some centres not stated)")
"no (0)"
>>> label("O=C1N=C(O)CN1/N=C\\c1ccc(-c2ccc([N+](=O)[O-])cc2)o1")
"no (0)"
>>> label("CC1=C(/C=C/C(C)=C/C=C/C(C)=C/CO)C(C)(C)CCC1")
"no (0)"
>>> label("CC1=C(/C=C/C(C)=C/C=C/C(C)=C/C=C/C=C(C)/C=C/C=C(C)/C=C/C2=C(C)CCCC2(C)C)C(C)(C)CCC1")
"no (0)"
>>> label("CCn1cc(C(=O)O)c(=O)c2cnc(N3CCNCC3)nc21")
"no (0)"
>>> label("Nc1nc2ncc(CNc3ccc(C(=O)N[C@@H](CCC(=O)O)C(=O)O)cc3)nc2c(=O)[nH]1")
"no (0)"
>>> label("c1ccc(-c2ccc(C(c3ccccc3)n3ccnc3)cc2)cc1 (configuration not stated)")
"yes (1)"
>>> label("CO[C@@H]1[C@@H](O[C@@H]2O[C@H](C)[C@@H](O[C@H]3C[C@@](C)(O)[C@H](O)[C@H](C)O3)[C@H](N(C)C)[C@H]2O)[C@@H](CC=O)C[C@@H](C)[C@@H](O[C@H]2CC[C@H](N(C)C)[C@@H](C)O2)/C=C/C=C/C[C@H](C)OC(=O)C[C@H]1O")
"no (0)"
>>> label("CC[C@@H](C(=O)[C@@H](C)[C@@H](O)[C@H](C)[C@@H]1O[C@@H]([C@@H](CC)C(=O)O)CC[C@@H]1C)[C@H]1OC2(C=C[C@@H](O)[C@]3(CC[C@@](C)([C@H]4CC[C@](O)(CC)[C@H](C)O4)O3)O2)[C@H](C)C[C@@H]1C (some centres not stated)")
"yes (1)"
>>> label("COc1ccc(-c2cc(C(F)F)nn2-c2ccc(S(N)(=O)=O)cc2)cc1F")
"no (0)"
>>> label("CC1(C)C2CC(=O)O[C@@]3(C)C4=CC(=O)O[C@@H](c5ccoc5)[C@]4(C)CCC3[C@@]2(C)C=C[C@H]1O (some centres not stated)")
"no (0)"

Source of measurements: PubChem BioAssay AID1159580
